# test description: in vitro
# experimental conditions: rat, gh3-tre-luc cells, AC50 (uM) modified / 1000, Tox21_110001=Tox21_111183; viability, 1 nM T3 present, 24 h
measured quantity: CC50 at 24 h

Could you tell me which CC50 at 24 h is on file for CN1C[C@H](C(=O)N[C@]2(C)O[C@@]3(O)[C@@H]4CCCN4C(=O)[C@H](Cc4ccccc4)N3C2=O)C=C2c3cccc4[nH]cc(c34)C[C@H]21 [Ergotamine D-tartrate] ?
> 50 µM

====

# Tested on: GH3-TRE-Luc cell line
# experimental conditions: read-out: AC50 (uM) modified / 1000; Tox21_110001=Tox21_300882; viability, 1 nM T3 present, 24 h
measured quantity: CC50 (µM)
Unit µM implied. Number only.

Could you tell me which CC50 is on file for CC1(C)C(C(=O)OC(C#N)c2cccc(Oc3ccccc3)c2)C1(C)C (stereo not shown) ?
80.7

Ref: paper PMC6792352
